target: UniProt:Q92793; assay: Isothermal titration calorimetry (ITC); conditions: At T = 298.15 K
Some compounds, each annotated with its measured ITC 9T∆S, CBP.
READOUT TYPE: ITC 9T∆S, CBP (kcal/mol)

>>> experimental_result("Cc1noc(C)c1-c1ccc2c(c1)nc(CCn1ccc3ccccc31)n2C[C@@H](C)N1CCOCC1")
-0.420
>>> experimental_result("Cc1noc(C)c1-c1ccc2c(c1)nc(CCc1ccccc1)n2CCN1CCCCC1")
-2.90
>>> experimental_result("Cc1noc(C)c1-c1ccc2c(c1)nc(CCc1nc3ccccc3s1)n2CCN1CCOCC1")
-0.638
>>> experimental_result("COc1ccc(CCc2nc3cc(-c4c(C)noc4C)ccc3n2C[C@@H](C)N2CCOCC2)cc1F")
1.37
>>> experimental_result("Cc1noc(C)c1-c1ccc2c(c1)nc(CCn1ccc3ccccc31)n2C[C@H](C)N1CCOCC1")
3.94

* * *

assay: Cytotoxicity assay; conditions: human, U2OS osteosarcoma cells
READOUT TYPE: CC50 at 72 h (µM)

>>> experimental_result("COc1ccc(CCc2nc3cc(-c4c(C)noc4C)ccc3n2C[C@H](C)N2CCOCC2)cc1Cl")
8.1

* * *

target: UniProt Q92793; assay: Isothermal titration calorimetry (ITC); conditions: At T = 298.15 K
READOUT TYPE: ITC 9T∆S, CBP (kJ/mol)

>>> experimental_result("Cc1ccc(CCc2nc3cc(-c4c(C)noc4C)ccc3n2CCN2CCOCC2)cc1")
0.282
>>> experimental_result("Cc1noc(C)c1-c1ccc(NC[C@H](C)N2CCOCC2)c([N+](=O)[O-])c1")
23.9
>>> experimental_result("Cc1noc(C)c1-c1ccc2c(c1)nc(CCc1ccc(F)cc1)n2CCN1CCOCC1")
-1.45
>>> experimental_result("COc1ccc(CCc2nc3cc(-c4c(C)noc4C)ccc3n2CCN2CCOCC2)cc1Cl")
3.18

* * *

Consider the following molecules and their measured ITC ∆G, CBP readings.
target: CBP (Homo sapiens, UniProt Q92793); assay: Isothermal titration calorimetry (ITC)
Sequence (Q92793 1085-1192 limits assumed): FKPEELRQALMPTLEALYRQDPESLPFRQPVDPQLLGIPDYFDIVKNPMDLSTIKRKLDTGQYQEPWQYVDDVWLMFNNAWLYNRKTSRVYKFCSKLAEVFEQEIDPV
READOUT TYPE: ITC ∆G, CBP (kcal/mol)

>>> experimental_result("Cc1noc(C)c1-c1ccc2c(c1)nc(CCn1ccc3ccccc31)n2C[C@@H](C)N1CCOCC1")
-10.0
>>> experimental_result("Cc1noc(C)c1-c1ccc(NC[C@H](C)N2CCOCC2)c([N+](=O)[O-])c1")
-8.50
>>> experimental_result("COc1ccc(CCc2nc3cc(-c4c(C)noc4C)ccc3n2CCN2CCOCC2)cc1Cl")
-10.1
>>> experimental_result("Cc1noc(C)c1-c1ccc2c(c1)nc(CCc1ccccc1)n2CCN1CCCCC1")
-8.66
>>> experimental_result("Cc1noc(C)c1-c1ccc2c(c1)nc(CCc1nc3ccccc3s1)n2CCN1CCOCC1")
-9.94
>>> experimental_result("Cc1noc(C)c1-c1ccc2c(c1)nc(CCc1ccc(F)cc1)n2CCN1CCOCC1")
-9.98
>>> experimental_result("Cc1ccc(CCc2nc3cc(-c4c(C)noc4C)ccc3n2CCN2CCOCC2)cc1")
-9.63
>>> experimental_result("COc1ccc(CCc2nc3cc(-c4c(C)noc4C)ccc3n2C[C@@H](C)N2CCOCC2)cc1F")
-9.71
>>> experimental_result("Cc1noc(C)c1-c1ccc2c(c1)nc(CCn1ccc3ccccc31)n2C[C@H](C)N1CCOCC1")
-8.58
